# study.system: T1, dADAR-dsRBD1 (UniProt Q9NII1 48-140)
# T1 sequence: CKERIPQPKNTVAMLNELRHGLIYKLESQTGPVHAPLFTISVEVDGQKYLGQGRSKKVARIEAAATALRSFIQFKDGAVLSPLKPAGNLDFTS
# assay.overview: ITC
pKd: −log10 of the molar value.

{"columns": ["binder", "pKd"],
 "data": [
  ["D10RNA (dsRNA) RNA 1: UUAUAAAUGC RNA 2: GCAUUUAUGA", 6.68]
]}
